System: glycogen synthase kinase-3 (GSK3A per assay name; protocol says GSK3B)
Experiment: GSK3 binders on small-molecule microarrays, primary screen, biochemical, small-molecule microarray, 635 nm fluorescence, GSK3A (AID 1103); also: the record names both GSK3A and GSK3B
Conditions: small-molecule microarray binding, fluorescence 635 nm; higher = more signal
// reported composite z-score per item
Number only, please.

Worked examples follow.
[
  {
    "MOLECULE": "COc1cc(NN2C(C(O)C3CCCCC3)C=CC3C(=O)N(c4ccccc4)C(=O)C32)cc(OC)c1OC (configuration not stated)",
    "composite z-score": 0.893
  },
  {
    "MOLECULE": "CC(=O)N1CC(C(O)C2C=CC3C(=O)NC(=O)C3N2Nc2ccc(Cl)cc2Cl)c2ccccc21 (configuration not stated)",
    "composite z-score": -0.28
  }
]

Notebook: "CO[C@H]1O[C@H](CO)[C@@H](OC(=O)CCc2ccccc2)[C@H](OC(=O)c2cc3ccccc3[nH]2)[C@H]1OC(=O)c1cc2ccccc2[nH]1" , composite z-score read as 0.828

Notebook: C=CCC(OC(C)=O)[C@@H]1[C@@H](N(Cc2cccc3ccccc23)C(=O)Cc2ccc(F)cc2)c2cc(OCCCO)ccc2N1C(=O)c1ccc(-c2ccccc2)cc1 (some centres not stated) , composite z-score read as -0.502

Notebook: "CC(C)CNC(=O)[C@@H]1c2ccccc2C(=O)N(C2CCCCC2)[C@H]1c1ccc(CO)cc1" , composite z-score read as 0.185

Notebook: "COc1ccc([Si](C)(C)[C@H]2[C@H](CCO)O[C@@]3(C(=O)N(Cc4ccccc4)c4ccc(N5CCOC5=O)cc43)[C@@H]2C)cc1" , composite z-score read as 0.411

Notebook: "O=C1C[C@@](C(=O)NCc2ccccc2)(c2ccc([N+](=O)[O-])cc2)[C@@H](c2ccc(CO)cc2I)N1CC12CC3CC(CC(C3)C1)C2" , composite z-score read as 0.794
